Entries and their measured pIC50 follow.
Target: UniProt P9WI81
Sequence (P9WI81 whole entry): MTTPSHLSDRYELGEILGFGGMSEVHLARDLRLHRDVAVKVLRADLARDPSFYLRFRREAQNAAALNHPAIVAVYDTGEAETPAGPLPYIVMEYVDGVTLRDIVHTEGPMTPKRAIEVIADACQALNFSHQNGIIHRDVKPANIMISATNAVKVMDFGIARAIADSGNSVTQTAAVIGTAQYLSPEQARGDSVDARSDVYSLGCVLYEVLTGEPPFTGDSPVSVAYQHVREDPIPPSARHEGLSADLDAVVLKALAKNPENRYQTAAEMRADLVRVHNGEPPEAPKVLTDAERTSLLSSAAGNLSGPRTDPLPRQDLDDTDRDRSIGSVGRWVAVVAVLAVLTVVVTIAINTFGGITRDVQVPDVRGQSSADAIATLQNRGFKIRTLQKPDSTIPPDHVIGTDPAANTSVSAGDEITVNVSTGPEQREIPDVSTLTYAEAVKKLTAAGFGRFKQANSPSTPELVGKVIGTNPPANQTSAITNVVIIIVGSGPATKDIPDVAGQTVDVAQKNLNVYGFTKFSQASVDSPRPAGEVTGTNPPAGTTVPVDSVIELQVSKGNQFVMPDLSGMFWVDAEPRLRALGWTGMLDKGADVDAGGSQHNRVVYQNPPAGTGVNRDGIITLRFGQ
Test: PknB enzyme inhibition, in vitro phosphorylation of the substrate GarA
Type: biochemical
Settings: assay conditions described in Ref. [8] (Table 5: Ref. [10]); read-out: PknB IC50
pIC50: −log10 of the molar value.
measured parameter: pIC50

In [3]: df
Out[3]:
                                   compound  value_reported
0  CN(C)CCNc1cc(Nc2cc(C3CC3)[nH]n2)nc(-c2cccc(C#N)c2)n1 [Compound 15b]            7.41
1  Fc1ccc(-c2nc(Nc3cc(C4CC4)[nH]n3)c3ccccc3n2)cc1            6.65
2  CN(C)[C@@H]1CCN(c2cc(Nc3cc(C4CC4)[nH]n3)nc(-c3ccccc3)n2)C1 [Compound 11e]            7.28
3  c1ccc(CNc2nccc(Nc3cc(C4CC4)[nH]n3)n2)cc1            6.15
4   c1cc(Nc2cc(C3CC3)[nH]n2)nc(NC2CCCCC2)n1            7.08
5  CN(C)[C@@H]1CCN(c2cc(Nc3cc(C4CC4)[nH]n3)nc(-c3cccc(C#N)c3)n2)C1 [Compound 15a]            7.25
6  COc1ccnc(Nc2cc(N3CC[C@@H](N(C)C)C3)nc(-c3ccccc3)n2)c1 [Compound 16b]            5.95
7  c1ccc2c(Nc3cc(C4CC4)[nH]n3)nc(NCC3CC3)nc2c1            6.37
